Test system: PfAP2-EXP AP2 domain (GST-tagged)
Assay: gcPBM binding intensity (ln(normalized median fluorescence intensity)); higher = stronger DNA binding
In all, about 25,000 sequences were measured (“ln(normalized median fluorescence intensity)”: median about 8.6, highest 2% from about 10 on). Only a selection was taken, and the highest values are over-represented in it overall.
Kind request: treat 9 as inclusive, so gcPBM binding intensity (ln) at 9 or higher is satisfied, anything lower is not satisfied.

• AAAAAAAAAAAAAAAAAAAAAAAAAAAATTCTATAT [GTGCAC_negctrl_site468] = satisfied
• TTTAATCATATGTTATATAATAAGCCCCCCCCCCAA [CACACA_negctrl_site486] = satisfied
• GCACATCTATATGAAACACACATGGAAACATCTCTT [CACACA_site7793] = not satisfied
• TTGCATTGATCAAACATACACACATGGTTAATAAAA [CACACA_site2084] = not satisfied
• TTTTTATAAAAATGAACACACACATATATATATATA [CACACA_site9160] = satisfied
• TCTTTCTATTTATAATGTACTCAAAATTATTCTATA [XGTACX_site4867] = not satisfied
• ATATAAATAATATAAATACACACTAAAAAAAATATA [CACACA_site542] = not satisfied
• TATATATAATTATAAGAACACACATATATATATATA [CACACA_site8786] = satisfied
• TATATATATATATATACACACTATATAATTCAAACA [CACACA_site4712] = satisfied
• AAATTATAATATAATACACACATAAAAAAAAAATCA [CACACA_site3634] = not satisfied
• CATACACCCATACATACACACATACATATATATATA [CACACA_site8591] = satisfied
• ATTCATATATTTATTGCATGCAAAGTAAAATAAATA [TGCATGCA_site307] = satisfied
• GCATATATCAAATATCGTACATTTTTTAAATTAAAA [XGTACX_site3994] = not satisfied
• TTTATAAAAATGAACACACACATATATATATATATA [CACACA_site3493] = satisfied
• TTTTAAATATGCCATACACACTACTATATAATAAAT [CACACA_site5119] = not satisfied
• GGGTTAATATTTACTACACACACTTAAAATATGTAT [CACACA_site47] = not satisfied
• TATATATATATATATATACACACTATATAATTCAAA [CACACA_site1023] = satisfied
• AAATAATAAATTATAACACACATATATATATATATA [CACACA_site4045] = satisfied
• GGTTAGACGAAATATACATGCAATGGAAAATAAGTT [TGCATGCA_site23] = satisfied
• TTGCCTTAAAAAGGAACACACATGCTTTTTTTAGTT [CACACA_site938] = not satisfied
• CAATTCAATATATATACACACACACTATTAATAATT [CACACA_site9256] = not satisfied
• TAAATTTAGAAACACACACACATATATATATATATA [CACACA_site847] = satisfied
• CCCCCCGTGTTATATACACACATAATCAAATAAAAT [CACACA_site4111] = satisfied
• AATATATTCCACATGTGTACATATATATATATATAT [XGTACX_site8006] = satisfied
• ATATATATATAATTATATAAAATATATCATATGTTA [XGTACX_negctrl_site47] = satisfied
• ATATATATATATATATATATATATATATATAAGTGG [XGTACX_negctrl_site90] = satisfied
• TCAAAGCACAGATACACACACATATATATATATATA [CACACA_site287] = satisfied
• TAATTTTTTTTTTTTTTTTTTTTTTTTTTTTTCCTT [CACACA_negctrl_site1095] = not satisfied
• AATTTTAATTATATCACACATAATATATACCAAAAA [CACACA_site6011] = not satisfied
• TATTAATTATATTTATGTACATAATCATATTATTAT [XGTACX_site7938] = not satisfied
• AATATTTTACAATACACATGCAAATAATATTCTAAA [TGCATGCA_site618] = not satisfied
